The entries below come with measured viability, T/C values attached.
Tested on: SW 982 tumor spheroid viability
Test: Anticancer human tumor SW 982 cell line growth inhibition;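 further: spheroids exposed to compound for 7 days before readout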
Details: second compound 30 pM; first compound 1 µM; active compounds read low; spheroids with HUVEC and MSC
Procedure: Multicellular complex tumor spheroid response to DNA repair inhibitors in combination with DNA-damaging drugs This study explores the anticancer activities of DNA-damaging drugs and inhibitors of DNA damage repair, both as single agents and in combinations. […] Twenty-six patient-derived or established malignant cell lines were evaluated representing sarcoma, melanoma, small cell lung cancer (SCLC), non-small cell lung cancer (NSCLC), as well as bladder, ovarian and pancreatic cancers. […]
Numeric answer only, unit % assumed.

COc1cc(C)[nH]c(=O)c1CN1CCc2c(Cl)cc(C(OC)C3COC3)c(Cl)c2C1=O (stereo unspecified) + COc1cc2c(cc1O)CCNC21CSC2c3c(OC(C)=O)c(C)c4c(c3C(COC1=O)N1C(O)C3Cc5cc(C)c(OC)c(O)c5C(C21)N3C)OCO4    97.7
CC1COCCN1c1cc(-c2ccnn2C)c2ccnc(-c3ccn[nH]3)c2n1 (stereo unspecified) + COc1cc2c(cc1O)CCNC21CSC2c3c(OC(C)=O)c(C)c4c(c3C(COC1=O)N1C(O)C3Cc5cc(C)c(OC)c(O)c5C(C21)N3C)OCO4    14.8

Short answer for Cc1cc(C)c(CNC(=O)c2cc(-c3ccc(CN4CCOCC4)cc3)cc3c2cnn3C2CCCC2)c(=O)[nH]1 + COc1cc2c(cc1O)CCNC21CSC2c3c(OC(C)=O)c(C)c4c(c3C(COC1=O)N1C(O)C3Cc5cc(C)c(OC)c(O)c5C(C21)N3C)OCO4 : viability, T/C was 96.7

Short answer for [2H]c1nc(C)nc([2H])c1-c1cc(NC[C@@H](C)c2cccc3c(C(=O)NC)ccnc23)ncn1 + COc1cc2c(cc1O)CCNC21CSC2c3c(OC(C)=O)c(C)c4c(c3C(COC1=O)N1C(O)C3Cc5cc(C)c(OC)c(O)c5C(C21)N3C)OCO4 : viability, T/C was 93.3

Short answer for CC(C)n1c(=O)n(C)c2cnc3cc(F)c(-c4ccc(OCCCN5CCCCC5)nc4)cc3c21 + COc1cc2c(cc1O)CCNC21CSC2c3c(OC(C)=O)c(C)c4c(c3C(COC1=O)N1C(O)C3Cc5cc(C)c(OC)c(O)c5C(C21)N3C)OCO4 : viability, T/C was 76.5

Short answer for COc1ccc([C@@H](O)c2cc(-c3ncnc4cc(N5CCOCC5)ccc34)c(F)cc2Cl)nn1 + COc1cc2c(cc1O)CCNC21CSC2c3c(OC(C)=O)c(C)c4c(c3C(COC1=O)N1C(O)C3Cc5cc(C)c(OC)c(O)c5C(C21)N3C)OCO4 : viability, T/C was 88.8

---

Tested on: SW 982 tumor spheroid viability
Experiment: Anticancer human tumor SW 982 cell line growth inhibition;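 further: spheroids exposed to compound for 7 days before readout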
Settings: second compound 0.03 µM; first compound 0.0949 µM; active compounds read low; spheroids with HUVEC and MSC
measured-property: viability, T/C (%)
Numeric answer only, unit % assumed.

Cc1sc2c(c1C)C(c1ccc(Cl)cc1)=NC(CC(=O)Nc1ccc(O)cc1)c1nnc(C)n1-2 (centres undefined) + CC[C@@]1(O)C(=O)OCc2c1cc1n(c2=O)Cc2cc3c(CN(C)C)c(O)ccc3nc2-1    83.2
CNCc1ccc(-c2cc(-c3nc(-c4ccc(S(=O)(=O)C(C)C)cc4)cnc3N)on2)cc1 + CC[C@@]1(O)C(=O)OCc2c1cc1n(c2=O)Cc2cc3c(CN(C)C)c(O)ccc3nc2-1    61
O=C(c1cc(Cc2n[nH]c(=O)c3ccccc23)ccc1F)N1CCN(C(=O)C2CC2)CC1 + CC[C@@]1(O)C(=O)OCc2c1cc1n(c2=O)Cc2cc3c(CN(C)C)c(O)ccc3nc2-1    72.6

Short answer for Cn1ncnc1[C@H]1c2n[nH]c(=O)c3cc(F)cc(c23)N[C@@H]1c1ccc(F)cc1 + CC[C@@]1(O)C(=O)OCc2c1cc1n(c2=O)Cc2cc3c(CN(C)C)c(O)ccc3nc2-1 : viability, T/C was 70.6
